Exercise: for every item that follows, state its recorded protein stability index.
B1: CPOX (parent)
chain: HAPTIHFNYRYFEVEEADGNKQWW

Variants of: B1
Experiment: protein stability index of a GFP-peptide fusion (GPS, HEK-293T) (PSI 1-6); higher = more stable;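 note: lentivirally expressed fusions sorted by FACS into six bins by GFP to DsRed ratio, PSI derived from sequencing read proportions per bin multiplied by bin number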
Conditions: c terminus: a fixed tail appended
Form: value (number only, do not type unit).

# return recorded protein stability index for entry HASTIHFNYRYFEVEEADGNKQWW [P3S]
1.99

For the variant HAPTIHFNYRYFEVEERDGNKQWW [A17R] , give its measured protein stability index value.
2.02

Query protein stability index for HAPTIHFNYWYFEVEEADGNKQWW [R10W]
1.99

Output protein stability index of HAPTIHFSYRYFEVEEADGNKQWW [N8S]
3.03

Specify protein stability index for HAPIIHFNYRYFEVEEADGNKQWW [T4I] and stop.
2.21

In one line, give reported protein stability index of the entry HAPTIHFNYRYFEVEEADGNNQWW [K21N] .
2.22

Identify measured protein stability index associated with HAPTIHFNYRYFEVQEADGNKQWW [E15Q]
2.2

Complete the entry with protein stability index for HAPTIHFNYRGFEVEEADGNKQWW [Y11G]
2.62

Indicate the recorded protein stability index value for this variant: HAPTIHFNYRYFEMEEADGNKQWW [V14M]
2.06
